EXPERIMENTAL TARGET: FP receptor (Homo sapiens (Human), UniProt P43088)
Sequence (P43088 whole entry): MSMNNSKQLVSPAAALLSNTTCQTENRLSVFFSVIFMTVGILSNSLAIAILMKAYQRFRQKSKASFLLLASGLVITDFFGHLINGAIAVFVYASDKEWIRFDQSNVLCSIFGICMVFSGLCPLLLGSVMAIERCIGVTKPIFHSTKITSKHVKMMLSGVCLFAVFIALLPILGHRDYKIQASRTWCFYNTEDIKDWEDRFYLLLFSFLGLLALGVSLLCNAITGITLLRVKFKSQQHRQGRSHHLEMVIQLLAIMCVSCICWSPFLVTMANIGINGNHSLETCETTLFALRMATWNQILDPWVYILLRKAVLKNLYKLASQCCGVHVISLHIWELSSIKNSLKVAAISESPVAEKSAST
ASSAY OVERVIEW: In vitro test of inhibition of human FP receptor activity (PGF2α-induced calcium flux in FP-expressing CHEM1 cells)
ASSAY SETUP: PGF2α-induced (2 nM) calcium flux in FP-expressing CHEM1 cells; some as mean values from multiple determinations
pIC50: −log10 of the molar value.
MEASURED ENDPOINT: pIC50

Cc1c(-c2ccccc2)nc2ccc(Br)cc2c1C(=O)NCC(c1ccccc1Cl)C(C)(C)C(=O)O (single isomer, unassigned) [Example 113]	7.21
Cc1c(-c2ccccc2)nc2ccc(Br)cc2c1C(=O)NCC(OCC(=O)O)c1ccccc1Cl (racemic) [Example 191]	7.00
Cc1c(-c2ccccc2)nc2ccc(Br)cc2c1C(=O)NCC(C)(CCC(=O)O)c1cc(F)ccc1Cl (single isomer, unassigned; (-)) [Example 170]	6.96
Cc1c(-c2ccccc2)nc2ccc(Br)cc2c1C(=O)NCC(C)(C(=O)O)c1ccccc1F (single isomer, unassigned; (-)) [Example 31]	7.17
COc1cccnc1C(CNC(=O)c1c(C)c(-c2ccccc2)nc2ccc(Br)cc12)CC(=O)O (racemic) [Example 108]	7.11

Data provenance is patent US11136296B2.
